Attribute: half-life at 0.5 µM
Experiment: Half life in Sprague-Dawley rat liver microsomes at 0.5 uM preincubated for 10 mins before NADPH and UDPGA challenge
Format: ADME, Microsome

>>> result("COc1cc(C2CCN(CC(N)=O)CC2)ccc1Nc1ncc2ccc(-c3ccccc3N(C)S(C)(=O)=O)n2n1")
"< 5 min"
>>> result("COc1cc(C2CCN(C(=O)C3CCN3)CC2)ccc1Nc1ncc2ccc(-c3ccccc3OC)n2n1 (racemic)")
"> 40 min"
>>> result("COc1cc(C2CCN(C[C@@H](C)O)CC2)ccc1Nc1ncc2ccc(-c3ccccc3N(C)S(C)(=O)=O)n2n1")
"11 min"
>>> result("COc1cc(C2CCN(C[C@H](O)CO)CC2)ccc1Nc1ncc2ccc(-c3ccccc3OC)n2n1")
"> 40 min"

Briefly, half-life at 0.5 µM measured for COc1cc(C2CCN(CC(O)CF)CC2)ccc1Nc1ncc2ccc(-c3ccccc3OC)n2n1 (racemic) : > 40 min

Briefly, half-life at 0.5 µM measured for `COc1cc(C2CCN(C(=O)C(C)(C)N)CC2)ccc1Nc1ncc2ccc(-c3ccccc3OC)n2n1` : > 40 min

Briefly, half-life at 0.5 µM measured for `COc1cc(C2CCN(CC(N)=O)CC2)ccc1Nc1ncc2c(Cl)cc(-c3ccccc3N(C)S(C)(=O)=O)n2n1` : > 40 min

Briefly, half-life at 0.5 µM measured for `COc1cc(C2CCNCC2)ccc1Nc1ncc2ccc(-c3ccccc3N(C)S(C)(=O)=O)n2n1` : 22 min
